The values you see were collected from patent US20060159648A1.

- assay method text: human pharmacokinetics after oral dosing (literature)
- Assay type: in vivo, humans
- condition label: human, plasma, oral; in adults; from Clearance/Bioavailability and bioavailability with a meal
readout name: clearance

INSERT INTO assay_data (compound, value) VALUES
  ('Cc1c(C)c2c(c(C)c1O)CCC(C)(COc1ccc(CC3SC(=O)NC3=O)cc1)O2 (stereo not shown)', '425 mL/min');
